- assayName: Inhibition of cobalt chloride-induced HIF-1 activation expressed in mouse NIH3T3 cells after 8 hrs by luciferase reporter gene assay
- Assay type: cell-based
- conditionSet: NIH3T3, 8 h
observable: pIC50
Please note pIC50 is a logarithmic value: minus log10 of concentration in mol/L. Answer with that number alone.

Sample records with pIC50:
COc1cc(O)c(C(=O)/C=C/c2cccc(Br)c2)c(OC)c1 = 5.66
CC(C)=CCc1c(O)cc(C(=O)[C@H]2[C@@H](c3c(O)ccc(C(=O)/C=C/c4ccc(O)cc4O)c3O)C=C(C)C[C@@H]2c2ccc(O)cc2O)cc1O = 5.39
CC(C)=CCc1c(O)cc(C(=O)[C@H]2[C@@H](c3c(O)ccc(C(=O)/C=C/c4ccc(O)cc4)c3O)C=C(C)C[C@@H]2c2ccc(O)cc2)cc1O = 5.08

-- ask Fill in: pIC50 of `CCCOc1ccc(/C=C/C(=O)c2c(O)cc(OC)cc2OC)cc1` is ___
-- reply 4.92

-- ask Give the measured pIC50 of `COc1cc(O)c(C(=O)/C=C/c2ccccc2C)c(OC)c1` .
-- reply 5.00

-- ask Requested read-out: pIC50. Entry: `COc1cc(/C=C/C(=O)CC(=O)/C=C/c2ccc(O)c(OC)c2)ccc1O`
-- reply 5.02

-- ask Returns the measured pIC50 for the input molecule. Input: `COc1cc(O)c(C(=O)/C=C/c2ccccc2)c(OC)c1`
-- reply 5.48

-- ask Need pIC50, item `COc1cc(O)c(C(=O)/C=C/c2ccccc2Br)c(OC)c1`
-- reply 4.94

-- ask I have this molecule here, `COc1cc(O)c(C(=O)/C=C/c2ccc(O)cc2)c(OC)c1` , and I need its recorded pIC50.
-- reply 5.51

-- ask pIC50 for `CC(C)=CCc1c(O)cc(C(=O)[C@H]2[C@@H](c3c(O)ccc(C(=O)/C=C/c4ccc(O)cc4)c3O)C=C(C)C[C@@H]2c2ccc(O)cc2O)cc1O` ?
-- reply 5.49

These measurements were taken from ChEMBL document CHEMBL1641537.
